- Tested on: protéine tyrosine hydroxylase (TH)
- EXPERIMENTAL DETAILS: Induction of tyrosine hydroxylase in the locus coeruleus of mice (immunodetection and image analysis of brain sections)
- Type: in vivo, souris Balb/C
- ASSAY SETUP: coupe 4 du LC (sens antérieur vers postérieur); i.p. 20 mg/kg, single injection, 3 days after; % par rapport à la valeur moyenne du groupe témoin
EXPERIMENTAL ENDPOINT: quantité de TH au niveau du LC, coupe 4
Give the number first and the unit second.

Q) I have this compound here, N#CCN1CCC[C@@H]2C(=O)N3c4ccccc4C[C@H]3[C@@H]21 (racemic) [Exemple 10] , and I need its recorded quantité de TH au niveau du LC, coupe 4.
A) 47%

Q) Could you do the same for O=C1[C@H]2CCCN[C@H]2[C@@H]2Cc3cc(F)ccc3N12 (racemic) [Exemple 24] , please?
A) 55%

Q) Could you do the same for C=CCN1CCC[C@H]2C(=O)N3c4ccccc4C[C@H]3[C@@H]21 [Exemple 44] , please?
A) 58%

Q) Could you do the same for Cc1ccc2c(c1)cc1n2C(=O)C2=C1N(C)CCC2 [Exemple 38] , please?
A) 62%

Q) Could you do the same for C=CCN1CCC[C@@H]2C(=O)N3c4ccc(OC)cc4C[C@@H]3[C@H]21 (racemic) [Exemple 19] , please?
A) 50%

Q) Could you do the same for CN1CCC[C@@H]2C(=O)N3c4ccccc4C[C@H]3[C@@H]21 [Exemple 3] , please?
A) 58%

Q) Could you do the same for CN1CCC[C@H]2C(=O)N3c4ccccc4C[C@@H]3[C@H]21 [Exemple 52] , please?
A) 77%

Q) Could you do the same for CN1CCC[C@@H]2C(=O)N3c4ccc(Cl)cc4C[C@H]3[C@@H]21 (racemic) [Exemple 27] , please?
A) 46%

Q) Could you do the same for Cc1ccc2c(c1)CC1C3=C(CCCN3C)C(=O)N21 (racemic) [Exemple 40] , please?
A) 66%

Q) Could you do the same for O=C1C[C@@H]2[C@H]3[C@@H](CCN2Cc2ccccc2)c2ccccc2N13 (racemic) [Exemple 53] , please?
A) 71%

Q) Could you do the same for CCCN1CC[C@@H]2c3ccccc3N3NC(=O)C[C@H]1[C@@H]23 [Exemple 15] , please?
A) 79%

Q) Could you do the same for CCCN1CC[C@H]2c3ccccc3N3NC(=O)C[C@@H]1[C@@H]23 (racemic) [Exemple 17] , please?
A) 38%

Q) Could you do the same for O=C1NN2c3ccccc3C[C@H]2[C@@H]2NCCC[C@H]12 (racemic) [Exemple 8] , please?
A) 50%
